Test system: J774
Protocol: Cytotoxicity in mouse J774 cells at 100 ug/mL after 48 hrs
Format: cell-based
Condition info: j774, 48 h
Property: Activity

// worked examples, Activity included
[
  {
    "Chemical string": "CN(C)CCOCCn1nc(O)c2cc([N+](=O)[O-])ccc21",
    "Assay system": "J774",
    "Assay value": "Non-toxic"
  },
  {
    "Chemical string": "COc1nn(CCCCCN2CCCCC2)c2ccc([N+](=O)[O-])cc12.Cl",
    "Assay system": "J774",
    "Assay value": "Toxic"
  },
  {
    "Chemical string": "CN(C)CCOCCn1nc(OCc2ccccc2)c2cc([N+](=O)[O-])ccc21",
    "Assay system": "J774",
    "Assay value": "Non-toxic"
  },
  {
    "Chemical string": "CN(C)Cc1ccccc1Cn1nc(O)c2cc([N+](=O)[O-])ccc21",
    "Assay system": "J774",
    "Assay value": "Non-toxic"
  },
  {
    "Chemical string": "O=[N+]([O-])c1ccc2c(c1)c(OCc1ccccc1)nn2CCCCCN1CCCCC1",
    "Assay system": "J774",
    "Assay value": "Toxic"
  },
  {
    "Chemical string": "COc1nn(CCOCCN(C)C)c2ccc([N+](=O)[O-])cc12.Cl",
    "Assay system": "J774",
    "Assay value": "Non-toxic"
  }
]

Q: // query Activity value for entry O=[N+]([O-])c1ccc2c(c1)c(OCc1ccccc1)nn2CCOCCN1CCCCC1
Result: Non-toxic

Q: // query Activity value for entry O=[N+]([O-])c1ccc2c(c1)c(O)nn2Cc1ccccc1CN1CCCCC1
Result: Non-toxic

Q: // query Activity value for entry O=[N+]([O-])c1ccc2c(c1)c(O)nn2CCCCCN1CCCCC1
Result: Non-toxic

Q: // query Activity value for entry CN(C)CCCCCn1nc(O)c2cc([N+](=O)[O-])ccc21
Result: Non-toxic

###

Protocol: Toxicity in BALB/c mouse assessed as survival fraction at 50 mg/kg, po after 9 weeks
Assay type: organism-based
Set-up: dose 50 mg/kg, route oral
Condition info: in vivo
Property: survival at 1512 h (%)
Report only the number, with the unit % understood.

Q: // query survival at 1512 h value for entry O=C(Cn1ccnc1[N+](=O)[O-])NCc1ccccc1
Result: 60

###

System: J774
Protocol: Cytotoxicity in mouse J774 cells at 100 ug/mL after 24 hrs
Assay type: cell-based
Condition info: j774, 24 h

[
  {
    "Chemical string": "COc1nn(CCOCCN2CCCCC2)c2ccc([N+](=O)[O-])cc12.Cl",
    "Activity": "Non-toxic"
  },
  {
    "Chemical string": "CN(C)CCOCCn1nc(O)c2cc([N+](=O)[O-])ccc21",
    "Activity": "Non-toxic"
  },
  {
    "Chemical string": "O=[N+]([O-])c1ccc2c(c1)c(OCc1ccccc1)nn2CCCCCN1CCCCC1",
    "Activity": "Toxic"
  }
]

###

Item-by-item account of survival at 1512 h
Protocol: Toxicity in BALB/c mouse assessed as survival fraction at 30 mg/kg, po after 9 weeks
Format: organism-based
Parameters: dose 30 mg/kg, route oral
Condition info: in vivo
Report only the number, with the unit % understood.

[
  {
    "Chemical string": "CN(C)CCOCCn1nc(OCc2ccccc2)c2cc([N+](=O)[O-])ccc21",
    "Result unit": "%",
    "survival at 1512 h": 87.5
  }
]

Q: // query survival at 1512 h value for entry COc1nn(CCOCCN2CCCCC2)c2ccc([N+](=O)[O-])cc12.Cl
Result: 87.5
